Source of measurements: paper PMC10900488

tested on: T. cruzi trypomastigotes; assay: Antitrypomastigote assay (T. cruzi), resazurin; type: cell-based, Trypanosoma (T.) cruzi; settings: Trypanosoma cruzi, 24 h, ± SD, resazurin, read-out: T. cruzi IC50 trypomastigotes
Kindly apply the following: Fulfilled if IC50 is less than 10 µM, Not fulfilled in every other case.

## Input Identify whether the compound COc1cc2c(cc1OC)[C@@H](Cc1ccc(OC)c(Oc3ccc(C[C@H]4c5cc(OC)c(OC)cc5CCN4C)cc3)c1)N(C)CC2 [(R,S)-11] records IC50 below 10 µM.
## Output Fulfilled

## Input How about this compound: O=C(Cn1ccnc1[N+](=O)[O-])NCc1ccccc1 [benznidazole, reference compound]
## Output Not fulfilled

## Input What would you report for COc1cc2c(cc1OC)[C@@H](Cc1ccc(Br)cc1)N(C)CC2 [(R)-9a] ?
## Output Not fulfilled

## Input Please do the same for COc1cc2c(cc1OC)[C@@H](Cc1ccc(OC)c(OCc3ccccc3)c1)N(C)CC2 [(R)-9b] as well.
## Output Not fulfilled

## Input Check COc1ccc(COc2ccc(C[C@H]3c4cc(OC)c(OC)cc4CCN3C)cc2Br)cc1 [(S)-9c] too.
## Output Not fulfilled

## Input Try COc1cc2c(cc1OC)[C@@H](Cc1ccc(OCc3ccccc3)cc1)N(C)CC2 [(R)-9d] next.
## Output Not fulfilled

## Input Okay, and COc1ccc(COc2ccc(C[C@@H]3c4cc(OC)c(OC)cc4CCN3C)cc2Oc2ccc(C[C@H]3c4cc(OC)c(OC)cc4CCN3C)cc2)cc1 [(R,S)-12] ?
## Output Fulfilled

###

Tested on: T. cruzi amastigotes
Test: Antiamastigote assay (T. cruzi), ex vivo intracellular model using mice macrophages, microscopy
Type: cell-based, Trypanosoma (T.) cruzi
Conditions: Trypanosoma cruzi, Peritoneal macrophage, 48 h, read-out: T. cruzi IC50 amastigotes, ± SD
Method: T. cruzi also assumes several cell morphologies during its lifecycle, which differ between the insect vector and mammalian host. […] In this work, antitrypanosomal activity was tested against both the amastigote form (evaluated microscopically using an ex vivo intracellular model using mice macrophages) and the trypomastigote form (using the resazurin in vitro assay).[33],[35] […]
experimental.endpoint: IC50

## Input Please report the recorded IC50 for COc1ccc(C[C@H]2c3cc(OC)c(OC)cc3CCN2C)cc1O [(S)-10a, (+)-laudanidine] .
## Output < 10 µM

###

system: T. cruzi trypomastigotes; assay: Antitrypomastigote assay (T. cruzi), resazurin; format: cell-based, Trypanosoma (T.) cruzi; conditions: Trypanosoma cruzi, 24 h, ± SD, resazurin, read-out: T. cruzi IC50 trypomastigotes
experimental.endpoint: IC50 (µM)
Numeric only. Scale: µM

Would you please look over these solved cases?
COc1cc2c(cc1OC)[C@H](Cc1ccc(OC)c(OCc3ccccc3)c1)N(C)CC2 [(S)-9b] = 57.7
COc1ccc(COc2ccc(C[C@H]3c4cc(OC)c(OC)cc4CCN3C)cc2Oc2ccc(C[C@H]3c4cc(OC)c(OC)cc4CCN3C)cc2)cc1 [(S,S)-12] = 5.6
COc1ccc(COc2ccc(C[C@H]3c4cc(OC)c(OC)cc4CCN3C)cc2Oc2ccc(C[C@@H]3c4cc(OC)c(OC)cc4CCN3C)cc2)cc1 [(S,R)-12] = 1.7
COc1cc2c(cc1OC)[C@@H](Cc1ccc(Oc3cc(C[C@H]4c5cc(OC)c(OC)cc5CCN4C)ccc3O)cc1)N(C)CC2 [(R,S)-13] = 10.1
COc1cc2c(cc1OC)[C@@H](Cc1ccc(Oc3cc(C[C@@H]4c5cc(OC)c(OC)cc5CCN4C)ccc3O)cc1)N(C)CC2 [(R,R)-13, (–)-dauricine] = 3.7
COc1cc2c(cc1OC)[C@H](Cc1ccc(Br)cc1)N(C)CC2 [(S)-9a] = 14.4

Kindly consider the entry below.
## Input Field: IC50 (T. cruzi trypomastigotes). Entry: COc1cc2c(cc1OC)[C@H](Cc1ccc(O)cc1)N(C)CC2 [(S)-10b, (+)-armepavine]
## Output 124

###

Each item that follows carries a reported IC50.
test system: T. cruzi trypomastigotes; assay: Antitrypomastigote assay (T. cruzi), resazurin; assay type: cell-based, Trypanosoma (T.) cruzi; conditions: Trypanosoma cruzi, 24 h, ± SD, resazurin, read-out: T. cruzi IC50 trypomastigotes
I only need the number, in µM, no unit after it.

COc1cc2c(cc1OC)[C@@H](Cc1ccc(O)c(Oc3ccc(C[C@H]4c5cc(OC)c(OC)cc5CCN4C)cc3)c1)N(C)CC2 [(S,R)-13] = 4.2

Alright, here's another compound for you.
## Input I'd like to know its IC50. The compound in question is COc1cc2c(cc1OC)[C@@H](Cc1ccc(Oc3cc(C[C@@H]4c5cc(OC)c(OC)cc5CCN4C)ccc3OC)cc1)N(C)CC2 [(R,R)-11, (−)-O-methyldauricine]
## Output 7.2

###

assay: Mammalian toxicity, MTT colorimetric; assay type: cell-based, murine; conditions: mouse; ± SD; NCTC cells, MTT, 96 h; read-out: CC50
CC50 at 96 h for assorted compounds

COc1ccc(C[C@@H]2c3cc(OC)c(OC)cc3CCN2C)cc1O [(R)-10a, (–)-laudanidine] = > 200 µM

Turning now to a further record.
## Input CC50 at 96 h for COc1ccc(C[C@H]2c3cc(OC)c(OC)cc3CCN2C)cc1O [(S)-10a, (+)-laudanidine] ?
## Output > 200 µM

###

Tested on: L. infantum amastigotes
Test: Antiamastigote assay (L. infantum), ex vivo intracellular model of mice macrophages, microscopy
Type: cell-based, Leishmania (L.) infantum
Details: Leishmania infantum, Peritoneal macrophage, 96 h, read-out: L. infantum IC50 amastigotes
Method: Table 1 depicts the antileishmanial (L. infantum) activity evaluation performed against both the amastigote form (evaluated microscopically using an ex vivo intracellular model of mice macrophages) and the promastigote one (using an MTT colorimetric method).[32],[33] The cytotoxicity was evaluated against NCTC cells using an MTT colorimetric method and the selectivity index was determined using the ratio between the CC50 values (NCTC cells) and the IC50 values (amastigotes).[32] […]
pIC50: −log10 of the molar value.
The entries below are paired with their reported pIC50.

COc1ccc(C[C@H]2c3cc(OC)c(OC)cc3CCN2C)cc1O [(S)-10a, (+)-laudanidine] = < 3.82

Let's switch to this compound now.
## Input Which pIC50 value belongs to COc1ccc(C[C@@H]2c3cc(OC)c(OC)cc3CCN2C)cc1O [(R)-10a, (–)-laudanidine] ?
## Output < 3.82

###

experiment: Mammalian toxicity, MTT colorimetric; assay type: cell-based, murine; settings: mouse
List of CC50 at 96 h values.
Expressed in µM, but write only the number.

Worked cases, CC50 at 96 h given:
CCCCCCCCCCCCCCCCOP(=O)([O-])OCC[N+](C)(C)C [miltefosine, reference compound] = 120
COc1cc2c(cc1OC)[C@@H](Cc1ccc(OC)c(Oc3ccc(C[C@H]4c5cc(OC)c(OC)cc5CCN4C)cc3)c1)N(C)CC2 [(R,S)-11] = 7.3
COc1cc2c(cc1OC)[C@H](Cc1ccc(OC)c(OCc3ccccc3)c1)N(C)CC2 [(S)-9b] = 47.1
COc1ccc(COc2ccc(C[C@@H]3c4cc(OC)c(OC)cc4CCN3C)cc2Oc2ccc(C[C@@H]3c4cc(OC)c(OC)cc4CCN3C)cc2)cc1 [(R,R)-12] = 13.9

## Input CC50 at 96 h for COc1ccc(COc2ccc(C[C@H]3c4cc(OC)c(OC)cc4CCN3C)cc2Br)cc1 [(S)-9c] ?
## Output 6.3

## Input Further, for COc1ccc(COc2ccc(C[C@H]3c4cc(OC)c(OC)cc4CCN3C)cc2Oc2ccc(C[C@H]3c4cc(OC)c(OC)cc4CCN3C)cc2)cc1 [(S,S)-12] ?
## Output 20.8

## Input Please answer likewise for COc1cc2c(cc1OC)[C@H](Cc1ccc(Oc3cc(C[C@H]4c5cc(OC)c(OC)cc5CCN4C)ccc3O)cc1)N(C)CC2 [(S,S)-13, (+)-dauricine]
## Output 15.9

## Input Likewise for COc1cc2c(cc1OC)[C@@H](Cc1ccc(Oc3cc(C[C@H]4c5cc(OC)c(OC)cc5CCN4C)ccc3O)cc1)N(C)CC2 [(R,S)-13] ?
## Output 13.3

## Input Input COc1cc2c(cc1OC)[C@@H](Cc1ccc(Oc3cc(C[C@H]4c5cc(OC)c(OC)cc5CCN4C)ccc3OC)cc1)N(C)CC2 [(S,R)-11, (−)-O,O′-dimethylgrisabine]
## Output 10.2

## Input Try COc1ccc(COc2ccc(C[C@@H]3c4cc(OC)c(OC)cc4CCN3C)cc2Br)cc1 [(R)-9c] next.
## Output 13.4

## Input And the next one, COc1cc2c(cc1OC)[C@@H](Cc1ccc(OC)c(OCc3ccccc3)c1)N(C)CC2 [(R)-9b] ?
## Output 57.3

###

tested on: T. cruzi trypomastigotes; test: Antitrypomastigote assay (T. cruzi), resazurin; type: cell-based, Trypanosoma (T.) cruzi; conditions: Trypanosoma cruzi, 24 h, ± SD, resazurin, read-out: T. cruzi IC50 trypomastigotes
So basically, if IC50 comes in under 4 µM it's Condition met, and if it's 4 µM or more it's Condition not met.

Example cases with answers are listed next.
COc1cc2c(cc1OC)[C@@H](Cc1ccc(Oc3cc(C[C@H]4c5cc(OC)c(OC)cc5CCN4C)ccc3OC)cc1)N(C)CC2 [(S,R)-11, (−)-O,O′-dimethylgrisabine] = Condition met
COc1cc2c(cc1OC)[C@@H](Cc1ccc(O)cc1)N(C)CC2 [(R)-10b, (–)-armepavine] = Condition not met
COc1cc2c(cc1OC)[C@H](Cc1ccc(Oc3cc(C[C@H]4c5cc(OC)c(OC)cc5CCN4C)ccc3O)cc1)N(C)CC2 [(S,S)-13, (+)-dauricine] = Condition not met
COc1cc2c(cc1OC)[C@H](Cc1ccc(Oc3cc(C[C@H]4c5cc(OC)c(OC)cc5CCN4C)ccc3OC)cc1)N(C)CC2 [(S,S)-11, (+)-O-methylthalibrine] = Condition met

Now for a further compound.
## Input # check: IC50 < 4 µM for COc1ccc(COc2ccc(C[C@@H]3c4cc(OC)c(OC)cc4CCN3C)cc2Oc2ccc(C[C@@H]3c4cc(OC)c(OC)cc4CCN3C)cc2)cc1 [(R,R)-12]
## Output Condition not met
